# assayed system: T1, human TREM2 on the cell surface (human, UniProt Q9NZC2 19-230)
# T1 sequence: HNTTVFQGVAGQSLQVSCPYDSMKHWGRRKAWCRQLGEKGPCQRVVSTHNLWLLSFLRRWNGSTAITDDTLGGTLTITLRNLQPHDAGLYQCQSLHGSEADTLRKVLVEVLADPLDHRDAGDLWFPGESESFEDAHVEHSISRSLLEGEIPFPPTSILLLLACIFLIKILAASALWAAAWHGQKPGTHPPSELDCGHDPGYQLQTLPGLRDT
# experiment notes: cell-based or functional assay
This listing pairs binders with measured NFAT EC50 (nM), plate coated mAb.
# unit: nM | format: bare number

Solved entries (count: 3):
Task item: Param item = CL0020107 (antibody, V domains shown, also called Clone CL0020107) VH: QVQLQQPGAELVKPGASVKMSCRASGYTFTNYWISWVKQRPGQGLEWIGDIYPHSTSTNYNERFRSKATLTVDKSSTTAYMQLSSLTSEDSAVYYCAREGFGISAWGQGTTLTVSS VL: QIVLTQSPAIMSASPGEKVTITCSATSSVSYMHWFQQKPGTSPKLWIYSTSNLASGVPARFSGSGSGTSHSLTISRMEAEDAATYYCQQRSSYPLTFGSGTKLELK ; retrieve measured NFAT EC50 (nM), plate coated mAb.
Reply: 10.9

Task item: Param item = CL0020210 (antibody, V domains shown, also called Clone CL0020210; CL020210) VH: QIQLVQSGPELRKPGETVKISCKASGYTFTTYGMSWVKQAPGKGLKWMGWINTYSGLPRHSDDFKGRFAFSLETSASTAYLQINNLKNEDTATYFCAREVYYGSRKTAWFAYWGQGTLVTVSA VL: DLVMSQSPSSLAVSVGERITMTCKSSQSLLYSNDQKNYLAWYQQIPGQSPKLLLYWASTRESGVPDRFTGSGSGTDFTLTISSVKAEDLAVYFCQQYYNYPPTFGAGTKLELK ; retrieve measured NFAT EC50 (nM), plate coated mAb.
Reply: 11.7

Task item: Param item = CL0020201 (antibody, V domains shown, also called Clone CL0020201) VH: EVQLQQSGPVLVKPGASVRMSCKPSGYTFTDYYMNWVKQSHGKSLEWIGSINPYTGGSSYNQNFRGKATLTVDKSSSTAYMELNSLTSEDSAVYYCARGSYYSNLGFAYWGQGTLVTVSA VL: DVQLTQSPSFLTASPGETITINCRASKSISKYLAWYQEKPGKTNKLLISSGSTLQSGIPSRFSGSGSGTDFTLTISSLEPEDFAMYYCQQYSEYPFTFGSGTKLEIK ; retrieve measured NFAT EC50 (nM), plate coated mAb.
Reply: 81.7

New cases:
Task item: Param item = CL0020113 (antibody, V domains shown, also called Clone CL0020113) VH: QIQLVQSGPELKKPGESLKISCKASGYTFTDYAMQWVKQAPGKGLQYMGWINTQTGKPTYADDFKERFVFSLETSASTAYLKINNLKNDDMATYLCARSYGGEYNWIAYWGQGTLVTVSS VL: DIVMTQTPSSQAVSAGEKVTMNCKSSQSLLYNENKKNYLAWYQQKPGQSPKLLIYWASTRESGVPDRFIGSGSGTDFTLTISSVQAEDLAVYYCQQSYNFPPTFGGGTKLELK ; retrieve measured NFAT EC50 (nM), plate coated mAb.
Reply: 185

Task item: Param item = CL0020195 (antibody, V domains shown, also called Clone CL0020195) VH: EVQLVESGGGLVQPGRSMMLSCSASGFTFSNYHMAWVRQAPTTGLEWVASITTGSGNTYYRHSVKGRFTISRDNAKSTLYLQMDSLRSEDTASYYCARRWYGGYEGYYFDYWGQGVMVTVSS VL: DIQMTQSPSLLSASVGDRVTLSCKAGQNVNNYLAWYQQKLGEAPKLLIYNANILQTGFPSRFSGTGSGTDFTLTISSLQPEDVATYFCQQYNSWTTFGGGTKLELK ; retrieve measured NFAT EC50 (nM), plate coated mAb.
Reply: 98.3

Task item: Param item = CL0020206 (antibody, V domains shown, also called Clone CL0020206) VH: EVQLQQSGPVLVKPGASVKMSCKASGYTFTDYYMNWVKQSHGKSLEWIGIINPYSGGISYNQKFKGKAILTVDKSSSTAYMELNSLTSEASAVYYCTRRNWDGRYAMDYWGQGTSVTVSS VL: DIVMTQSHKFMSTSVGDRVSITYKASQDVGSAVAWYQQKPGQSPKLLIYWTSTRHTGVPDRFTGSGSGTDFTLTISNVQSEDLADYFCQQYSSYPFTFGGGTKLEIK ; retrieve measured NFAT EC50 (nM), plate coated mAb.
Reply: 69.9

Task item: Param item = CL0020120 (antibody, V domains shown, also called Clone CL0020120) VH: EVQLQQSGPELVRTGASVKISCRASSYSFTDNYIHWVKQTHGRSLEWIGYISGYTGATSYNQKFKGKATFTVDTSSSTAYMQFNSLTSEDSAVYYCARSTMIAPYGMDYWGQGTSVTVSS VL: DIVMTQSHKFMSTSVGDRVNITCKASQDVVTAVAWYQQKPGQSPKLLIYWASTRHTGVPDRFTGSGSGTDFTLTISNVQSEDLADYFCQQYSRYPLTFGAGTKLELK ; retrieve measured NFAT EC50 (nM), plate coated mAb.
Reply: 195

Task item: Param item = CL0020188 (antibody, V domains shown, also called Clone CL0020188) VH: EVKLLDSGGGLVQAGGSLRLSCAGSGFTFTDFYMSWIRQPPGKAPEWLGVIRNKANGYTAGYNPSVKGRFTISRDNTQNILYLQMNTLRAEDTAIYYCARLTYGFDYWGQGVMVTVSS VL: DIVMTQGALPNPVPSGESASITCQSSKSLLHSNGKTYLNWYLQRPGQSPQLLIYWMSTRASGVSDRFSGSGSGTDFTLKISSVEAEDVGVYYCQQFLEYPFTFGSGTKLEIK ; retrieve measured NFAT EC50 (nM), plate coated mAb.
Reply: 91.2

Task item: Param item = CL0020139 (antibody, V domains shown, also called Clone CL0020139) VH: EVQLQQSGPELVKPGASVKMSCKAPGYSFTSYLMNWVKQKPGQGLEWIGYINPYSAGSNYNEKFKDKATLTSDKSSSTAYMELRSLTSEDSAVYFCARSSYRYGFDYWGQGTTLTVSS VL: DIQMTQSSSSFSVSLGDRVTITCKASEDIYNRLAWYQQKPGNAPRLLISGATSLETGVPSRFSGSGSGKDYTLSITSLQTEDVATYSCQQYWSTPWTFGGGTKLEIK ; retrieve measured NFAT EC50 (nM), plate coated mAb.
Reply: 30.8

Task item: Param item = CL0020315 (antibody, V domains shown, also called Clone CL0020315) VH: EVQLQQSGPELVKPGASVKISCKASGYTFTDYNIHWVKQSHGKSLEWIGYIYPYNGVTGYNQKFKSKATLTVDNSSSTAYMELRSLTSEDSAVYYCARSRVDGDYWGQGTTLTVSS VL: DVVMTQTPLSLPVSLGDQASISCRSSQSLVHSNGNTYLHWYLQKPGQSPKLLIYKISNRFSGVPDRFSGSGSGTDFTLKISRVEAEDLGVYFCSQSTHVPLTFGAGTKLELK ; retrieve measured NFAT EC50 (nM), plate coated mAb.
Reply: 72.7

Values were extracted from patent US20220119522A1.
